Method description: human clinical trial, pharmacokinetics of Tablet Formulation 6 and Tablet Formulation 7, fasted and fed
Condition summary: in vivo, oral, administered as Tablet Formulation 7, single dose of two tablets, Fed (High-Fat Meal), GM, read-out: AUC0-24 hr
Provide the reported AUC(0-t) of each item.
Give bare numbers, in µM·h.

COC(=O)N[C@H](C(=O)N1CCC[C@H]1c1ncc(-c2cc(F)c3c(c2)O[C@@H](c2cnc(C4CC4)s2)n2c-3cc3cc(-c4cnc([C@@H]5CCCN5C(=O)[C@@H](NC(=O)OC)C(C)C)[nH]4)ccc32)[nH]1)C(C)C    0.716

Next compound, AUC(0-t) to be filled in.
Exercise: What AUC(0-t) value was documented for this compound, C=C[C@@H]1C[C@]1(NC(=O)[C@@H]1C[C@@H]2CN1C(=O)[C@H](C(C)(C)C)NC(=O)O[C@@H]1C[C@H]1CCCCCc1nc3ccc(OC)cc3nc1O2)C(=O)NS(=O)(=O)C1CC1 [Compound III, hydrate] ?
Key: 0.38

###

Method description: solubility in simulated fasted-state intestinal fluid
Format: physicochemical
Condition summary: fassif, thermodynamic from solid, after two hours of equilibration, read-out: apparent solubility of neat amorphous compound
Test readout: solubility at 2 h (µg/mL)
One number for each entry, in µg/mL.

Exercise: What value of measured solubility at 2 h is listed for CC(C)OC(=O)[C@@H](C)NP(=O)(OC[C@H]1O[C@@H](n2ccc(=O)[nH]c2=O)[C@](C)(Cl)[C@@H]1O)Oc1ccccc1 (stereo partly shown) ?
Key: 50

###

Method description: human clinical trial, pharmacokinetics of Tablet Formulation 6 and Tablet Formulation 7, fasted and fed
Condition summary: in vivo, oral, administered as Tablet Formulation 7, single dose of two tablets, Fed (High-Fat Meal), GM
Test readout: Cmax (nM)
One number for each entry, in nM.

# map each molecule to its Cmax
1. C=C[C@@H]1C[C@]1(NC(=O)[C@@H]1C[C@@H]2CN1C(=O)[C@H](C(C)(C)C)NC(=O)O[C@@H]1C[C@H]1CCCCCc1nc3ccc(OC)cc3nc1O2)C(=O)NS(=O)(=O)C1CC1 [Compound III, hydrate]
2. COC(=O)N[C@H](C(=O)N1CCC[C@H]1c1ncc(-c2cc(F)c3c(c2)O[C@@H](c2cnc(C4CC4)s2)n2c-3cc3cc(-c4cnc([C@@H]5CCCN5C(=O)[C@@H](NC(=O)OC)C(C)C)[nH]4)ccc32)[nH]1)C(C)C [Compound II]

Key:
61.2
78.7

###

Method description: human clinical trial, pharmacokinetics of Tablet Formulation 6 and Tablet Formulation 7, fasted and fed
Condition summary: in vivo, administered as Tablet Formulation 6, single dose of two tablets, Fasted, GM
Test readout: Cmax (nM)
Give bare numbers, in nM.

Exercise: Can you share its Cmax? I mean this molecule: CC(C)OC(=O)[C@@H](C)NP(=O)(OC[C@H]1O[C@@H](n2ccc(=O)[nH]c2=O)[C@](C)(Cl)[C@@H]1O)Oc1ccccc1 (stereo partly shown)
Key: 900

###

Method description: human clinical trial, pharmacokinetics of Tablet Formulation 6 and Tablet Formulation 7, fasted and fed
Condition summary: in vivo, administered as Tablet Formulation 6, single dose of two tablets, Fed (High-Fat Meal), GM
Test readout: AUC(0-inf) (µM·h)
Numbers only, in µM·h.

Exercise: Fill in the blank: the reported AUC(0-inf) of CC(C)OC(=O)[C@@H](C)NP(=O)(OC[C@H]1O[C@@H](n2ccc(=O)[nH]c2=O)[C@](C)(Cl)[C@@H]1O)Oc1ccccc1 (stereo partly shown) is ____.
Key: 3.91

###

Method description: human clinical trial, pharmacokinetics of Tablet Formulation 6 and Tablet Formulation 7, fasted and fed
Condition summary: in vivo, oral, administered as Tablet Formulation 6, single dose of two tablets, Fed (High-Fat Meal), GM, read-out: AUC0-24 hr
Test readout: AUC(0-t) (µM·h)
One number for each entry, in µM·h.

I need AUC(0-t) for every entry listed below, if you could help.
1. C=C[C@@H]1C[C@]1(NC(=O)[C@@H]1C[C@@H]2CN1C(=O)[C@H](C(C)(C)C)NC(=O)O[C@@H]1C[C@H]1CCCCCc1nc3ccc(OC)cc3nc1O2)C(=O)NS(=O)(=O)C1CC1 [Compound III, hydrate]
2. COC(=O)N[C@H](C(=O)N1CCC[C@H]1c1ncc(-c2cc(F)c3c(c2)O[C@@H](c2cnc(C4CC4)s2)n2c-3cc3cc(-c4cnc([C@@H]5CCCN5C(=O)[C@@H](NC(=O)OC)C(C)C)[nH]4)ccc32)[nH]1)C(C)C

Key:
0.33
0.658

###

Method description: human clinical trial, pharmacokinetics of Tablet Formulation 6 and Tablet Formulation 7, fasted and fed
Condition summary: in vivo, oral, administered as Tablet Formulation 7, single dose of two tablets, Fasted, GM, read-out: AUC0-24 hr
Test readout: AUC(0-t) (µM·h)
One number for each entry, in µM·h.

C=C[C@@H]1C[C@]1(NC(=O)[C@@H]1C[C@@H]2CN1C(=O)[C@H](C(C)(C)C)NC(=O)O[C@@H]1C[C@H]1CCCCCc1nc3ccc(OC)cc3nc1O2)C(=O)NS(=O)(=O)C1CC1 [Compound III, hydrate]    0.285

Now take the following molecule into account.
Exercise: What value of measured AUC(0-t) is listed for `COC(=O)N[C@H](C(=O)N1CCC[C@H]1c1ncc(-c2cc(F)c3c(c2)O[C@@H](c2cnc(C4CC4)s2)n2c-3cc3cc(-c4cnc([C@@H]5CCCN5C(=O)[C@@H](NC(=O)OC)C(C)C)[nH]4)ccc32)[nH]1)C(C)C` ?
Key: 0.783

###

Please provide measured AUC(0-inf) for the entries that follow.
Method description: human clinical trial, pharmacokinetics of Tablet Formulation 6 and Tablet Formulation 7, fasted and fed
Condition summary: in vivo, oral, administered as Tablet Formulation 6, single dose of two tablets, Fasted, GM
Numbers only, in µM·h.

C=C[C@@H]1C[C@]1(NC(=O)[C@@H]1C[C@@H]2CN1C(=O)[C@H](C(C)(C)C)NC(=O)O[C@@H]1C[C@H]1CCCCCc1nc3ccc(OC)cc3nc1O2)C(=O)NS(=O)(=O)C1CC1 [Compound III, hydrate]    0.508

Would you kindly look at the next entry?
Exercise: Suppose we examine the compound COC(=O)N[C@H](C(=O)N1CCC[C@H]1c1ncc(-c2cc(F)c3c(c2)O[C@@H](c2cnc(C4CC4)s2)n2c-3cc3cc(-c4cnc([C@@H]5CCCN5C(=O)[C@@H](NC(=O)OC)C(C)C)[nH]4)ccc32)[nH]1)C(C)C [Compound II] ; what AUC(0-inf) value has been reported?
Key: 0.942

###

Method description: human clinical trial, pharmacokinetics of Tablet Formulation 6 and Tablet Formulation 7, fasted and fed
Condition summary: in vivo, oral, administered as Tablet Formulation 6, single dose of two tablets, Fasted, GM, read-out: AUC0-24 hr
Answer each item with its documented AUC(0-t).
Answers are plain numbers, in µM·h.

COC(=O)N[C@H](C(=O)N1CCC[C@H]1c1ncc(-c2cc(F)c3c(c2)O[C@@H](c2cnc(C4CC4)s2)n2c-3cc3cc(-c4cnc([C@@H]5CCCN5C(=O)[C@@H](NC(=O)OC)C(C)C)[nH]4)ccc32)[nH]1)C(C)C    0.572

Consider the record given below.
Exercise: AUC(0-t) lookup needed for C=C[C@@H]1C[C@]1(NC(=O)[C@@H]1C[C@@H]2CN1C(=O)[C@H](C(C)(C)C)NC(=O)O[C@@H]1C[C@H]1CCCCCc1nc3ccc(OC)cc3nc1O2)C(=O)NS(=O)(=O)C1CC1 [Compound III, hydrate] , thanks.
Key: 0.218

###

Method description: human clinical trial, pharmacokinetics of Tablet Formulation 6 and Tablet Formulation 7, fasted and fed
Condition summary: in vivo, administered as Tablet Formulation 6, single dose of two tablets, Fasted, GM, read-out: AUC0-24 hr
Test readout: AUC(0-t) (µM·h)
Give bare numbers, in µM·h.

Exercise: May I ask what AUC(0-t) has been recorded for CC(C)OC(=O)[C@@H](C)NP(=O)(OC[C@H]1O[C@@H](n2ccc(=O)[nH]c2=O)[C@](C)(Cl)[C@@H]1O)Oc1ccccc1 (stereo partly shown) ?
Key: 2.63

###

Method description: human clinical trial, pharmacokinetics of Tablet Formulation 6 and Tablet Formulation 7, fasted and fed
Condition summary: in vivo, administered as Tablet Formulation 7, single dose of two tablets, Fasted, GM
Test readout: AUC(0-inf) (µM·h)
Answers are plain numbers, in µM·h.

Exercise: Sample CC(C)OC(=O)[C@@H](C)NP(=O)(OC[C@H]1O[C@@H](n2ccc(=O)[nH]c2=O)[C@](C)(Cl)[C@@H]1O)Oc1ccccc1 (stereo partly shown) — what was its AUC(0-inf)?
Key: 3.01

###

Method description: human clinical trial, pharmacokinetics of Tablet Formulation 6 and Tablet Formulation 7, fasted and fed
Condition summary: in vivo, oral, administered as Tablet Formulation 7, single dose of two tablets, Fed (High-Fat Meal), GM
Test readout: AUC(0-inf) (µM·h)
One number for each entry, in µM·h.

C=C[C@@H]1C[C@]1(NC(=O)[C@@H]1C[C@@H]2CN1C(=O)[C@H](C(C)(C)C)NC(=O)O[C@@H]1C[C@H]1CCCCCc1nc3ccc(OC)cc3nc1O2)C(=O)NS(=O)(=O)C1CC1 [Compound III, hydrate]    0.733

Exercise: Entry COC(=O)N[C@H](C(=O)N1CCC[C@H]1c1ncc(-c2cc(F)c3c(c2)O[C@@H](c2cnc(C4CC4)s2)n2c-3cc3cc(-c4cnc([C@@H]5CCCN5C(=O)[C@@H](NC(=O)OC)C(C)C)[nH]4)ccc32)[nH]1)C(C)C [Compound II] : reported AUC(0-inf) = ?
Key: 1.2
